Tested on: Escherichia coli
assayOverview: Antibacterial activity against Escherichia coli ATCC 25922
Assay type: functional
measuredProperty: MIC

# MIC (compound: CCCCCCCCCCCC(=O)N[C@@H](CCCCN)CN1CC(=O)N(c2ccc(N3CN(C[C@H](CCCCN)NC(=O)CCCCCCCCCCC)CC3=O)cc2)C1 ) is > 25 µg/mL

get_value(item= CCCCCCCCCC(=O)N[C@@H](CCCCN)CNCC(=O)Nc1ccc(NC(=O)CNC[C@H](CCCCN)NC(=O)CCCCCCCCC)cc1 , readout=MIC) returns > 25 µg/mL

Memo: CCCCCC(=O)N[C@@H](CCCCN)CN1CC(=O)N(c2ccc(N3CN(C[C@H](CCCCN)NC(=O)CCCCC)CC3=O)cc2)C1 , reported MIC: > 25 µg/mL

Field MIC (entry NCCCC[C@@H](CN1CC(=O)N(c2ccc(N3CN(C[C@H](CCCCN)NC(=O)Cc4ccc5ccccc5c4)CC3=O)cc2)C1)NC(=O)Cc1ccc2ccccc2c1 ) reads > 25 µg/mL
